Hi there, I'd appreciate the recorded RP-LC retention time for every entry that follows.
assay: gradient 5% acetonitrile 3 min, to 50% in 2 min, to 85% in 15 min, held 3 min, 100 µL/min; conditions: column: Zorbax Extend-C18 2.1 x 50 mm; eluents: water / acetonitrile, 0.1% formic acid
Entry rule: numbers only, all in s.

Prompt: Tell us which RP-LC retention time value is on record for Cn1nc(-c2nc(-c3ccc(F)cc3)no2)c2c1CCN(C(=O)NC1CCCCC1)C2
Response: 979

Prompt: Tell us which RP-LC retention time value is on record for Cc1nnc2c(NC(=O)c3cnccn3)cccn12
Response: 600

Prompt: Tell us which RP-LC retention time value is on record for O=C(Cc1ccc(F)cc1)Nc1cc(-c2cccs2)no1
Response: 926

Prompt: Tell us which RP-LC retention time value is on record for COc1ccc(-c2cn3c(CC(=O)NCc4cccc(Br)c4)csc3n2)cc1
Response: 811
